target: T1, c-erbB-2 ECD with a Ser-Gly-His6 C-terminal fusion (UniProt P04626 23-652); experiment: SPR BIAcore
T1 construct: extracellular domain; Expressed from CHO cells, IMAC purified; coupled to a CM5 chip, coated on plates, or biotinylated with NHS-LC-biotin; also called c-erbB-2 extracellular domain; biotinylated c-erbB-2 ECD

{"columns": ["BINDER", "QUANTITY_UNIT", "koff"],
 "data": [
  ["C6ML3-20 (scFv) scFv: QVQLLQSGAELKKPGESLKISCKGSGYSFTSYWIAWVRQMPGKGLEYMGLIYPGDSDTKYSPSFQGQVTISVDKSVSTAYLQWSSLKPSDSAVYFCARHDVGYCSSSNCAKWPEYFQHWGQGTLVTVSSGGGGSGGGGSGGGGSQSVLTQPPSVSAAPGQKVTISCSGSSSNIGNNYVSWYQQLPGTAPKLLIYGHTNRPAGVPDRFSGSKSGTSASLAISGFRSEDEADYYCAAWEQSLWGWVFGGGTKLTVLG", "s⁻¹", 0.0014],
  ["C6ML3-28 (scFv) scFv: QVQLLQSGAELKKPGESLKISCKGSGYSFTSYWIAWVRQMPGKGLEYMGLIYPGDSDTKYSPSFQGQVTISVDKSVSTAYLQWSSLKPSDSAVYFCARHDVGYCSSSNCAKWPEYFQHWGQGTLVTVSSGGGGSGGGGSGGGGSQSVLTQPPSVSAAPGQKVTISCSGSSSNIGNNYVSWYQQLPGTAPKLLIYGHTNRPAGVPDRFSGSKSGTSASLAISGFRSEDEADYYCASWDYALSGWVFGGGTKLTVLG", "s⁻¹", 0.0017],
  ["C6ML3-6 (scFv) scFv: QVQLLQSGAELKKPGESLKISCKGSGYSFTSYWIAWVRQMPGKGLEYMGLIYPGDSDTKYSPSFQGQVTISVDKSVSTAYLQWSSLKPSDSAVYFCARHDVGYCSSSNCAKWPEYFQHWGQGTLVTVSSGGGGSGGGGSGGGGSQSVLTQPPSVSAAPGQKVTISCSGSSSNIGNNYVSWYQQLPGTAPKLLIYGHTNRPAGVPDRFSGSKSGTSASLAISGFRSEDEADYYCASWDYSLSGWVFGGGTKLTVLG", "s⁻¹", 0.0019],
  ["C6ML3-21 (scFv) scFv: QVQLLQSGAELKKPGESLKISCKGSGYSFTSYWIAWVRQMPGKGLEYMGLIYPGDSDTKYSPSFQGQVTISVDKSVSTAYLQWSSLKPSDSAVYFCARHDVGYCSSSNCAKWPEYFQHWGQGTLVTVSSGGGGSGGGGSGGGGSQSVLTQPPSVSAAPGQKVTISCSGSSSNIGNNYVSWYQQLPGTAPKLLIYGHTNRPAGVPDRFSGSKSGTSASLAISGFRSEDEADYYCAAWDYSQSGWVFGGGTKLTVLG", "s⁻¹", 0.0022],
  ["C6ML3-22 (scFv) scFv: QVQLLQSGAELKKPGESLKISCKGSGYSFTSYWIAWVRQMPGKGLEYMGLIYPGDSDTKYSPSFQGQVTISVDKSVSTAYLQWSSLKPSDSAVYFCARHDVGYCSSSNCAKWPEYFQHWGQGTLVTVSSGGGGSGGGGSGGGGSQSVLTQPPSVSAAPGQKVTISCSGSSSNIGNNYVSWYQQLPGTAPKLLIYGHTNRPAGVPDRFSGSKSGTSASLAISGFRSEDEADYYCAAWDASLSGWVFGGGTKLTVLG", "s⁻¹", 0.0036]
]}
